- target under test: EGFR^L858R (Homo sapiens, UniProt P00533, L858R)
- Sequence (P00533 25-1210 L858R): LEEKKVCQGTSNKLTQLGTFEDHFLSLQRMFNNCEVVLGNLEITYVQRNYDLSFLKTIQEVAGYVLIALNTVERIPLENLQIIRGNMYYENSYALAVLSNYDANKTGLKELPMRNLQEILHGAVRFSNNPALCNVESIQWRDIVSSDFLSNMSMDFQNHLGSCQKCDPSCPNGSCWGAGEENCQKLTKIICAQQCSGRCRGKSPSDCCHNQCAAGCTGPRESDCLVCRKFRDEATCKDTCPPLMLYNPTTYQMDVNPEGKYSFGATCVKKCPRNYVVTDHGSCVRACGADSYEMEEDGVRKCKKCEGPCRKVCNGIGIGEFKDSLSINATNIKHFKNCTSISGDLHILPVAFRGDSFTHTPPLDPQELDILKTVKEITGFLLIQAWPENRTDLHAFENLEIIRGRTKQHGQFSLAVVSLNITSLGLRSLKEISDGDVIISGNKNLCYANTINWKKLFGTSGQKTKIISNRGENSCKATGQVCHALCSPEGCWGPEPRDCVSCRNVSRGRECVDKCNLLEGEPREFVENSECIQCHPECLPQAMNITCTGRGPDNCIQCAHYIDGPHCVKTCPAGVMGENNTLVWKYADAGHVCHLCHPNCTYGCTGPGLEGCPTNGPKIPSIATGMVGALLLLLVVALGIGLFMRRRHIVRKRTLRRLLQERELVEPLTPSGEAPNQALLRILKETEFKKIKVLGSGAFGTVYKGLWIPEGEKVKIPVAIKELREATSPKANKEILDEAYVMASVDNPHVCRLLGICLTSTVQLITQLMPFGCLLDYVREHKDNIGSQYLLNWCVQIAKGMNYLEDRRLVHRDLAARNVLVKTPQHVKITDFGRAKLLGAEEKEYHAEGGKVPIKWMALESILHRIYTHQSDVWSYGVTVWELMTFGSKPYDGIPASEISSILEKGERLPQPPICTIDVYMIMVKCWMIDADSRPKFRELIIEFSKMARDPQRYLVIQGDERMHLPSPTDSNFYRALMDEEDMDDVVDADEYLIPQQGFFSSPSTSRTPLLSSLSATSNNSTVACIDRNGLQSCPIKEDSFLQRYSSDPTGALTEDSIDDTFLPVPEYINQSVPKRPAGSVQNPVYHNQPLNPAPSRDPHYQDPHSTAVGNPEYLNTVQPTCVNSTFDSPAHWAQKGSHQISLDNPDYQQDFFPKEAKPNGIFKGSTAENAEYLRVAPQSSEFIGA
- assay summary: in vitro kinase assay (HTRF KinEASE-TK kit), L
- assay setup: kinase inhibition
attribute measured: IC50

Tell me the measured IC50 of C[C@H]1CCOc2c(cnn2C)-c2nccc(n2)Nc2cc3c(cn2)c(N2CCN(C4CC4)CC2)nn31 [(97)] , please.
100 to 1000 nM

Field request: IC50 | item: CCCN1CCN(Cc2ccc(-c3nn4c5cc(ncc35)Nc3ccnc(n3)-c3cnn(C)c3OCC[C@@H]4C)n2C)CC1 [(135)]
< 10 nM

Query (compound): C[C@H]1CCOc2c(cnn2C)-c2nccc(n2)Nc2cc3c(cn2)c(-c2cc(CN4CCOCC4)n(C)c2)nn31 [(139)] ; field requested: IC50
< 10 nM

Item under review: C[C@H]1CCOc2c(cnn2C)-c2nccc(n2)Nc2cc3c(cn2)c(-c2ccc(CN4CCN(C5COC5)CC4)n2C)nn31 [(124)] . Reported IC50?
< 10 nM

Find the recorded IC50 belonging to C[C@H]1CCOc2c(cnn2C)-c2nccc(n2)Nc2cc3c(cn2)c(-c2nn(C)cc2CCN(C)C)nn31 [(155)] and report it.
< 10 nM

Using the record for C[C@H]1CCOc2c(cnn2C)-c2nccc(n2)Nc2cc3c(cn2)c(-c2ccc(CN4CCOCC4)o2)nn31 [(164)] , report its IC50.
< 10 nM

Can you look up the measured IC50 of CC1CCOc2c(cnn2C)-c2nccc(n2)Nc2cc3c(cn2)c(-c2ccc(CN4CCN(C)CC4)o2)nn31 (stereo not shown) [(63)] for me?
< 10 nM

Give its IC50 value. Item: Cn1ncc2c1OCCCn1nc(N3CCCC3C(=O)O)c3cnc(cc31)Nc1ccnc-2n1 (stereo not shown) [(65)]
100 to 1000 nM

Param item = COC(=O)C1CCCN1c1nn2c3cc(ncc13)Nc1ccnc(n1)-c1cnn(C)c1OCCC2 (stereo not shown) [(61)] ; retrieve measured IC50.
100 to 1000 nM

---

- target under test: Ba/F3 EGFR-Del19/T790M (Homo sapiens, UniProt P00533, T790M, cells depend on it, form not given)
- Sequence (P00533 with tags, fused parts or gaps DEL746-750/T790M, form open): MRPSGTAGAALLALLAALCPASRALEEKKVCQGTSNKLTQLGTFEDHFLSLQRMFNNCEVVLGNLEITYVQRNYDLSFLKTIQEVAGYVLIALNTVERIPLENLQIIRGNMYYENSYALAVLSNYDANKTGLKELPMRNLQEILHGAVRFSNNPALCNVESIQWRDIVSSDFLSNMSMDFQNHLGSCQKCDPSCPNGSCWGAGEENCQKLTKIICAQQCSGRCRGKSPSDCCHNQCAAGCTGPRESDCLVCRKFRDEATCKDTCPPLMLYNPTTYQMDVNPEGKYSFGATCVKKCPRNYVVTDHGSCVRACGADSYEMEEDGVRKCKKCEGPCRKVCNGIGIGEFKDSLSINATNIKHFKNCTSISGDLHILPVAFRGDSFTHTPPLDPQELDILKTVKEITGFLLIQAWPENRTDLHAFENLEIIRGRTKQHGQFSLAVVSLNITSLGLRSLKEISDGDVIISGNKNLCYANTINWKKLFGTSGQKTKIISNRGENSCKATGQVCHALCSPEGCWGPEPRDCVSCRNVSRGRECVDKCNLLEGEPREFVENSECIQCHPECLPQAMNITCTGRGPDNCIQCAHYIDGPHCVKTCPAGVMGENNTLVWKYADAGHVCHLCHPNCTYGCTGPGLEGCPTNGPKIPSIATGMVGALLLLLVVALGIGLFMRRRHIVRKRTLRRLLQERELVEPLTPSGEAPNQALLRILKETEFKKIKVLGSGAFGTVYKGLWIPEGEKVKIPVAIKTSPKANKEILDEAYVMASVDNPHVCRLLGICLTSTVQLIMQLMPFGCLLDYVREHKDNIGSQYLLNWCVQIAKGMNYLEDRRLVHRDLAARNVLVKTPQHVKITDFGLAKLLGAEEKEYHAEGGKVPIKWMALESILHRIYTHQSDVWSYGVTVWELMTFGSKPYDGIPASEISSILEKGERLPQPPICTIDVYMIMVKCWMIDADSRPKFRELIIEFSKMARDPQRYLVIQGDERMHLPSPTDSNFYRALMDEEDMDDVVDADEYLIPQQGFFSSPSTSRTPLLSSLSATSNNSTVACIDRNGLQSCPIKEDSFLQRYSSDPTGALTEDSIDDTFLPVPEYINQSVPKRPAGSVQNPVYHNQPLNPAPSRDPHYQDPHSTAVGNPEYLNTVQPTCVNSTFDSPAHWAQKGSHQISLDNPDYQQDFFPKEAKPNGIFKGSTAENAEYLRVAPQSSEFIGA
- assay summary: Ba/F3 viability assay (CellTiter-Glo), DT
- Format: cell-based
- assay setup: anti-proliferation, read-out: BaF3 DT IC50
attribute measured: GI50

Worked examples follow.
molecule	GI50
C[C@H]1CCOc2c(cnn2C)-c2nccc(n2)Nc2cc3c(cn2)c(-c2ccc(CN(C)C)cc2)nn31 [(176)]	< 0.01 µM
C[C@H]1CCOc2c(cnn2C)-c2nccc(n2)Nc2cc3c(cn2)c(N2CC[C@H](CN(C)CCF)C2)nn31 [(169)]	< 0.01 µM
C[C@H]1CCOc2c(cnn2C)-c2nccc(n2)Nc2cc3c(cn2)c(-c2ccc(F)c(OCCN(C)C)c2)nn31 [(131)]	< 0.01 µM
CCN(CC)CCOc1cc(-c2nn3c4cc(ncc24)Nc2ccnc(n2)-c2cnn(C)c2OCC[C@@H]3C)ccc1F [(149)]	< 0.01 µM
CCN(CC)CCOc1cc(F)cc(-c2nn3c4cc(ncc24)Nc2ccnc(n2)-c2cnn(C)c2OCC[C@@H]3C)c1 [(133)]	0.01 to 0.1 µM

Would you mind telling me what GI50 value was observed for CN1CCN(CC2CCN(c3nn4c5cc(ncc35)Nc3ccnc(n3)-c3cnn(C)c3OCCC4)C2)CC1 (stereo not shown) [(57)] ?
0.01 to 0.1 µM

Looking for the measured GI50 of C[C@H]1CCOc2c(cnn2C)-c2nccc(n2)Nc2cc3c(cn2)c(N2CC[C@@H](O)C2)nn31 [(112)] , can you help?
< 0.01 µM
